We begin with a simple list: items and their reported EC50.
biological target: GPR119 receptor (UniProt Q8TDV5, S309L, species not given); test: GPR119 signaling, cyclic AMP (cAMP) homogenous time resolved fluorescence (HTRF) assay; details: CHO cells with Gα15 and murine GPR119, or HEK293 Flp-In cells with human GPR119 S309L; table does not say which; read-out: Activity: inflection points, denoted as EC50 values (agonist activation of GPR119, cAMP)

Field: example entries. Status: answers known.
N#Cc1ccc(OCCC2CC2C2CCN(c3ncc(Cl)cn3)CC2)cc1F (racemic) [Ex 12] = 10 to 50 nM
N#Cc1nccc(OCC[C@@H]2C[C@@H]2C2CCN(c3ncc(Cl)cn3)CC2)n1 (racemic) [Ex 38] = 10 to 50 nM
Clc1cnc(N2CCC(C3CC3CCOc3cccc(-c4nnco4)c3)CC2)nc1 (racemic) [Ex 10] = > 200 nM

Now consider a different compound.
Ask: Please indicate recorded EC50 of Cc1nnc(-c2ccc(OCCC3CC3C3CCN(c4ncc(Cl)cn4)CC3)cc2F)o1 (single isomer, unassigned) [Ex 83 S] measured with GPR119 receptor (UniProt Q8TDV5, S309L, species not given).
Result: < 10 nM
